- test system: Voltage-gated potassium channel subunit beta-2 (Rattus norvegicus)
- protocol description: KvBeta positive modulators, primary screen, biochemical, NADPH fluorescence (AID 623);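 note: fluorescence intensity change per second fitted from 20 to 320 s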
- condition notes: Recombinant KvBeta, NADPH fluorescence decrease slope, 10 min; at 10 µM
Activity calls are given as the source filed them.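 Rule for the calls: active = NADPH fluorescence slope more negative than the mean of all samples by about 3 SD, 99.7% confidence; inactive = the rest.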
Just give me one of these, please: yes (1) = active, no (0) = inactive

The following compounds have reported results that may help.
CN(CCOC(=O)c1ccc2c(c1)OCCO2)Cc1ccccc1 ... no (0)
S=c1[nH]nc(-c2ccco2)n1C1CCCCC1 ... no (0)

Exercise: // return assay outcome for CC(O)CNc1nc2c(c(=O)n(C)c(=O)n2C)n1CCc1ccccc1 (stereo not given)
Key: yes (1)

Exercise: Item: "COc1cccc(C(=O)N2CCN(Cc3ccccn3)CC2)c1OC"
Key: no (0)

Exercise: Item: COC(=O)c1ccccc1NC(=O)C1CC(=O)N(c2ccc(F)cc2)C1 (stereo not given)
Key: no (0)

Exercise: Item: "CN(C)CCCn1c(NC(=O)C2CCCCC2)nc2ccccc21"
Key: no (0)

Exercise: Item: "OC1C[N+]2(CCCCC2)C1"
Key: no (0)

Exercise: Item: "CCOc1ccc(Cn2nnc(C(=O)Nc3cc(C)cc(C)c3)c2N)cc1"
Key: no (0)

Exercise: Item: CCC1CCCCN1C(=O)CSc1nnc(-c2ccc(OC)cc2)o1 (stereo not given)
Key: no (0)

Exercise: Item: "CCCNC1=C(C)C(=O)CC1"
Key: no (0)

* * *

- protocol description: inhibitors of mutant huntingtin aggregation, primary screen, imaging, exon1htt(103Q)mCFP cells, high-content imaging (AID 483);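 note: compound exposure lasted 3 days before fixation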
- condition notes: exon1htt(103Q)mCFP cell line, aggregate imaging, at 2 µM; active compounds read high
Exercise: for every item that follows, state its recorded inhibition of aggregation.
Numbers only, in %.

Some compounds with recorded inhibition of aggregation:
O=C(Oc1cc2oc(=O)c3c(c2cc1Cl)CCCC3)c1ccco1 ... -4.9
CCc1cc(C(=O)OC)c(NC(=O)CCC(=O)O)s1 ... 3.9
COCCn1c(=N)c(C(=O)NCCc2ccccc2)cc2c(=O)n3cccc(C)c3nc21 ... -22.7

Parameter requested: inhibition of aggregation. Apply to each item below.
1. O=C(NCCc1c[nH]c2ccccc12)c1ccc(S(=O)(=O)NCc2ccco2)cc1
2. CCC1Oc2ccc(C)cc2N(CC(=O)N(Cc2cccnc2)Cc2ccc(C)o2)C1=O (configuration not stated)
3. COc1cc(C)c(N)cc1C(C)C
4. COc1ccc(S(=O)(=O)NC(C)C(=O)Nc2cccc(C(C)=O)c2)cc1 (configuration not stated)
5. Cc1ccc(S(=O)(=O)Nc2cc(C(=O)O)ccc2N2CCCCC2)cc1
6. CCOc1ccccc1NC(=O)CN(C)S(=O)(=O)c1cccc2nsnc12

Key:
14.7
13.1
5.2
14.5
15.4
-5.6

Parameter requested: inhibition of aggregation. Apply to each item below.
1. CCN(CC)CC(C)CNC(=O)CC(C(=O)N1CCc2ccccc21)n1ccnc1 (configuration not stated)
2. O=C(CSc1n[nH]c(-c2ccco2)n1)Nc1sc2c(c1C(=O)Nc1ccccc1)CCCC2
3. O=C(CNc1ccc(Oc2ccccc2)cc1)N1CCOCC1
4. Cc1ccc(-c2nn(-c3ccccc3)cc2CN(Cc2ccccc2)C(=O)CCC(=O)O)o1
5. COc1cccc(NC(=O)C2CCCN(S(=O)(=O)c3cccc4cccnc34)C2)c1 (configuration not stated)
6. COC(=O)c1ccccc1NC(=O)C1CC(=O)N(c2ccc(F)cc2)C1 (configuration not stated)
7. COc1cc(OC)cc(-c2nc(N)n[nH]2)c1

Key:
1. 10.7
2. 3.5
3. 2.1
4. -24.5
5. 25.4
6. -18.4
7. 0

Exercise: Item "N#Cc1nc(-c2ccccc2Cl)oc1N1CCOCC1" has what recorded inhibition of aggregation?
Key: 10.4
